Target: Prolyl endopeptidase FAP (Homo sapiens, UniProt Q12884)
Sequence (Q12884 whole entry): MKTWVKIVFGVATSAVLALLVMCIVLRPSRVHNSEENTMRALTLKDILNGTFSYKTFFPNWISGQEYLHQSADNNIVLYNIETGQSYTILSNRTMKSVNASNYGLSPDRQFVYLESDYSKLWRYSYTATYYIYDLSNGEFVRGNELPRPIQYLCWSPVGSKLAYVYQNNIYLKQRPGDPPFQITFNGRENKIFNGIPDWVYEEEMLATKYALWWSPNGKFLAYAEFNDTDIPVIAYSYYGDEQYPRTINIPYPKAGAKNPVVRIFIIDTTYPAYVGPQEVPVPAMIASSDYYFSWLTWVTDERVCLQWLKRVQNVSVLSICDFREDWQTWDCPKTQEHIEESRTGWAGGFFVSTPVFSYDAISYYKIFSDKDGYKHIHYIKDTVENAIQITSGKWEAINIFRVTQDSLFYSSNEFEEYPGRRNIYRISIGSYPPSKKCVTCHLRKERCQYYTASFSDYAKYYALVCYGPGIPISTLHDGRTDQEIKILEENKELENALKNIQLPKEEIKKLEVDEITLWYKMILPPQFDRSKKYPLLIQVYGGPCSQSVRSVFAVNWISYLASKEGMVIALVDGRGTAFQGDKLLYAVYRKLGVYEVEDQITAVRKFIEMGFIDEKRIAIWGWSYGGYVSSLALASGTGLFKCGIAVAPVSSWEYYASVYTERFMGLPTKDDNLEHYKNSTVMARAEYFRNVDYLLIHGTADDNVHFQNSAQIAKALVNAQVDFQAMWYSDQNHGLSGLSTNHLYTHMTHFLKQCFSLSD
Collected IC50 for Prolyl endopeptidase FAP (Homo sapiens, UniProt Q12884) across several studies; compounds listed below.

Consider the worked cases shown below.
CC(C)C(=O)N(C)[C@H]1CC[C@H]([C@H](N)Cc2cc(F)ccc2F)CC1: > 35 µM
Cc1cc(-c2ccc([C@H](C(=O)N(C)C)[C@H](N)C(=O)N3CC[C@H](F)C3)cc2)cn2ncnc12: > 40 µM
N[C@H](Cc1cc(F)ccc1F)[C@H]1CC[C@H](N2CCC(F)(F)C2)CC1: > 35 µM
Cc1nc(CN2C(=O)c3c(nc(N4CCC[C@@H](N)C4)n3CC3CCC3)N3CCN=C23)nc2ccccc12: 3.05 µM
CN(Cc1ccc(C#N)cc1)[C@H]1CC[C@H]([C@H](N)Cc2cc(F)ccc2F)CC1: > 35 µM
COc1cccc([C@H]2C[C@@H]2NC(=O)CC(C)(C)NCC(=O)N2C[C@@H](F)C[C@H]2C#N)c1: > 20 µM

Query block: Which IC50 is reported for this compound? NC(CC(=O)N1CCC[C@H]1C(=O)NCc1ccc(C(=O)O)cc1)Cc1ccc(F)c(F)c1.O=C(O)C(F)(F)F (stereo partly specified)
Result block: > 100 µM

Query block: Which IC50 is reported for this compound? `Cc1c(-c2ccc([C@H](C(=O)N(C)C)[C@H](N)C(=O)N3CC[C@H](F)C3)cc2)ccc2ncnn12`
Result block: > 40 µM

Query block: Which IC50 is reported for this compound? `N#C[C@@H]1CC(F)(F)CN1C(=O)CNC(=O)c1cccc(-c2ccc(Cl)cc2)n1`
Result block: 0.1 µM

Query block: Which IC50 is reported for this compound? `Cc1nc(CN2C(=O)c3c(nc(N4CCC[C@@H](N)C4)n3CC(=O)C3CC3)N3CCN=C23)nc2ccccc12`
Result block: 0.107 µM

Query block: Which IC50 is reported for this compound? `N#C[C@@H]1CC(F)(F)CN1C(=O)CNC(=O)c1csc(Cc2ccc(-c3ccc(Cl)cc3)cc2)n1`
Result block: 0.145 µM

Query block: Which IC50 is reported for this compound? `N#Cc1ccc(OCc2nc(C(=O)NCC(=O)N3CC(F)(F)C[C@H]3C#N)cs2)cc1`
Result block: 0.007 µM

Query block: Which IC50 is reported for this compound? NC(CC(=O)N1CCC[C@H]1C(=O)NCc1ccc(C(F)(F)F)cc1)Cc1ccccc1F.O=C(O)C(F)(F)F (stereo partly specified)
Result block: > 100 µM

Query block: Which IC50 is reported for this compound? `CCN([C@H]1CC[C@H]([C@H](N)Cc2cc(F)ccc2F)CC1)S(=O)(=O)c1c(C)noc1C`
Result block: > 35 µM

Query block: Which IC50 is reported for this compound? `Cc1nc2c(o1)CN([C@H]1CO[C@H](c3cc(F)ccc3F)[C@@H](N)C1)C2`
Result block: > 100 µM

Query block: Which IC50 is reported for this compound? `CC(C)(CC(=O)N[C@@H]1C[C@H]1c1cccc(Cl)c1)NCC(=O)N1C[C@@H](F)C[C@H]1C#N`
Result block: > 20 µM
